Target: T1, AMHR-II/Fc fusion protein (human, UniProt Q16671 18-149, limits assumed)
T1 construct: also called AMHR-II recombinant receptor expressed in the form of fusion protein with a region Fc; recombinant target; not shown: Fc region
T1 sequence (Q16671 18-149 limits assumed): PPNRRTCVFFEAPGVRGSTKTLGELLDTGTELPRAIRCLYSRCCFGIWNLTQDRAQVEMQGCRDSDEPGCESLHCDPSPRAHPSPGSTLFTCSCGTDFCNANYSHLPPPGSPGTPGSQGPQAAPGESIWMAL
Test: SPR, BIAcore X100; AMHR-II/Fc immobilised on CM5 chip, antibody injected; 25 C
kon: recorded values

binder | unit_info | kon
chimeric 12G4 monoclonal antibody (antibody, V domains shown, Variable regions without leader joined to the human constant regions; also called 12G4-Chimeric; unmutated chimeric 12G4 antibody) VH: QVQLQQSGPELVKPGASVRMSCKASGYTFTSYHIHWVKQRPGQGLEWIGWIYPGDDSTKYNEKFKGKTTLTADKSSSTAYMLLSSLTSEDSAIYFCTRGDRFAYWGQGTLVTVSA VL: QIVLTQSPAIMSASLGEGITLTCSASSSVRYIHWYQQKSGTSPKLLIYSTSNLASGVPSRFSGSGSGTFHSLTISSVEAEDAADYYCLQWSSYPWTFGGGTKLEIKR | M⁻¹ s⁻¹ | 3500
mutated humanized 12G4 antibody 3C-23 produced in YB2/0 (antibody, human IgG1, kappa, V domains shown, Chains without leader; Mutations VH-Q3R, VL-I177T/S179P; also called 3C_23 YB2/0; R901 3C23) VH: QVRLVQSGAEVKKPGASVKVSCKASGYTFTSYHIHWVRQAPGQRLEWMGWIYPGDDSTKYSQKFQGRVTITRDTSASTAYMELSSLRSEDTAVYYCTRGDRFAYWGQGTLVTVSS VL: DIQMTQSPSTLSASVGDRVTITCRASSSVRYIAWYQQKPGKAPKLLTYPTSSLESGVPSRFSGSGSGTEFTLTISSLQPDDFATYYCLQWSSYPWTFGGGTKVEIKR | M⁻¹ s⁻¹ | 36000
mutated humanized 12G4 antibody 3C-23K produced in CHO (antibody, human IgG1, kappa, V domains shown, also called 3C_23K CHO; 3C-23K-CHO) VH: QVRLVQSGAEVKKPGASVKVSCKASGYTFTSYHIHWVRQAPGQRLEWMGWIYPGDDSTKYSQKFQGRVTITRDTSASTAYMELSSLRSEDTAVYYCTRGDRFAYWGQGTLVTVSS VL: DIQMTQSPSTLSASVGDRVTITCRASSSVRYIAWYQQKPGKAPKLLTYPTSSLKSGVPSRFSGSGSGTEFTLTISSLQPDDFATYYCLQWSSYPWTFGGGTKVEIKR | M⁻¹ s⁻¹ | 41000
